Origin of the recorded values: paper PMC10609270

- test-description: Sulforhodamine B (SRB) cytotoxicity assay in A549 cells
- Type: cell-based, human
- assay-conditions: human, A549 cells; SRB assay, 48 h; read-out: Cytotoxic IC50 (A549 Human Lung Cells)
readout-name: IC50 at 48 h (µM)
Your answer should be a plain number; it is taken to be in µM.

C[C@H](CCC(=O)N1CCOCC1)[C@H]1CC[C@H]2[C@@H]3CC[C@@H]4C[C@H](O)CC[C@]4(C)[C@H]3C[C@H](O)[C@]12C	19.8

Recorded IC50 at 48 h of `Cc1cc(C)nc(NS(=O)(=O)c2ccc(NC3c4ccccc4Oc4ccccc43)cc2)n1` , please.
31.9

----------
- System: SARS-CoV-2
- test-description: microbe, parasite or virus in culture
- Format: cell-based
- assay-conditions: Severe acute respiratory syndrome coronavirus 2, 48 h, read-out: IC50(viral), relative number of infected cells
readout-name: pIC50
Remember the convention: pIC50 equals -log10 of concentration in molar.

Reported pIC50 for Cc1ccc(C(=O)Nc2ccc(CN3CCN(C)CC3)c(C(F)(F)F)c2)cc1C#Cc1cnc2cccnn12 [Ponatinib, reference compound] : what is it?
6.03

----------
This section presents compounds with their documented IC50 values.
- test-description: in vitro
- assay-conditions: African green monkey
Record the value in µM, omitting the unit from your answer.

Cc1cc(C)nc(NS(=O)(=O)c2ccc(NC3c4ccccc4Oc4ccccc43)cc2)n1	17.2

Give the measured IC50 of `Cc1ccnc(NS(=O)(=O)c2ccc(NC3c4ccccc4Oc4ccccc43)cc2)n1` .
18.4

----------
Entries with reported Cytotoxicity in infected Vero CCL-81 cells (number of cell nuclei) on Vero CCL-81 cells
readout-name: Cytotoxicity in infected Vero CCL-81 cells (number of cell nuclei)

Cc1ccc(C(=O)Nc2ccc(CN3CCN(C)CC3)c(C(F)(F)F)c2)cc1C#Cc1cnc2cccnn12 [Ponatinib, reference compound]	some cytotoxicity
Cc1ccnc(NS(=O)(=O)c2ccc(NC3c4ccccc4Oc4ccccc43)cc2)n1	some cytotoxicity

----------
- Test system: spike protein
- Type: cell-based, SARS-CoV-2
readout-name: Levels of spike protein compared to vehicle

Cc1ccnc(NS(=O)(=O)c2ccc(NC3c4ccccc4Oc4ccccc43)cc2)n1	significantly decreased
Cc1cc(C)nc(NS(=O)(=O)c2ccc(NC3c4ccccc4Oc4ccccc43)cc2)n1	significantly decreased
C[C@H](CCC(=O)N1CCOCC1)[C@H]1CC[C@H]2[C@@H]3CC[C@@H]4C[C@H](O)CC[C@]4(C)[C@H]3C[C@H](O)[C@]12C	significantly decreased
